molecular target: 2-color SERCA (construct 509) (Canis lupus familiaris); construct: other: Tg-dependent FRET change of construct 509; mCerulean (Cer) was fused to the N-terminus of canine SERCA2a; fused on or other part: mCerulean at the N-terminus; assay: Tg titration of 2-color SERCA FRET change in AAV-293 cells
Sequence (O46674 whole entry, the tested form may be a part): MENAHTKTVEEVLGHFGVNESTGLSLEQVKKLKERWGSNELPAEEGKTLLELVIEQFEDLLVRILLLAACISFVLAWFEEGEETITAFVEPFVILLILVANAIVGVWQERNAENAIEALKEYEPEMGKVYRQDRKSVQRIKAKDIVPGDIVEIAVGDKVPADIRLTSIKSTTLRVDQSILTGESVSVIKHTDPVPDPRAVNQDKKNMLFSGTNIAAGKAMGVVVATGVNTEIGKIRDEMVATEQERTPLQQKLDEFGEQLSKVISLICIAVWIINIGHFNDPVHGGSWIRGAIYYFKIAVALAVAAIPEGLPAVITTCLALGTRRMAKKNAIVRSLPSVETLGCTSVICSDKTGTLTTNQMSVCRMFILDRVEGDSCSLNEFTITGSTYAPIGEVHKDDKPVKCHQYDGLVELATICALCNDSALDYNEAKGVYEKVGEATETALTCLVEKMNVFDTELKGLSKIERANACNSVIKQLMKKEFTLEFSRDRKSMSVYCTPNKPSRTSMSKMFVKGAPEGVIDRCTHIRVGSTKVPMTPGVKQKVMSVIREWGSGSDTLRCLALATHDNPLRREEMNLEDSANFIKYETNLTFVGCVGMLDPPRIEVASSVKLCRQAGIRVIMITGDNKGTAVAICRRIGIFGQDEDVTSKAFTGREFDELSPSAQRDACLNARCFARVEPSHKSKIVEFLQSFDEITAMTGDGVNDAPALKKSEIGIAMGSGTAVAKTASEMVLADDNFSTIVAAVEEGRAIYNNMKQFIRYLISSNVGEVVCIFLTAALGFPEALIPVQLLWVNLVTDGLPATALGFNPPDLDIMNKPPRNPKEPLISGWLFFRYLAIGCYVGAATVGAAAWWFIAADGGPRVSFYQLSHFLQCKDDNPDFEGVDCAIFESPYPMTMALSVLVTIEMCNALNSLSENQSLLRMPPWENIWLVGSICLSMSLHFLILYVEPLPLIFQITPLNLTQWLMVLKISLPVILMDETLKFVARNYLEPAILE
valueType: EC50

Q: Given the entry C/C=C(/C)C(=O)O[C@H]1C(C)=C2[C@H]([C@@H]1OC(=O)CCCCCCC)[C@@](C)(OC(C)=O)C[C@H](OC(=O)CCC)[C@@]1(O)[C@H]2OC(=O)[C@@]1(C)O [Tg, thapsigargin] , report its measured EC50.
Result: ~100 nM
